- Tested on: M. hapla eggs
- measurement_description: Meloidogyne hapla in vitro egg hatch assay
- Format: in vivo
- details: 45 μM, 8 days; z-score vs 8 untreated DMSO wells
measure_name: Number of Hatched Eggs z-score

{"compound": "COCc1nn2cc(-c3ccc(C)c(C)c3)nc2s1 [I-109]", "test_target": "M. hapla eggs", "endpoint_value": "[3.31]"}
{"compound": "Cc1c(-c2cccc(Br)c2)nc2sccn12 [I-35]", "test_target": "M. hapla eggs", "endpoint_value": "[3.97]"}
{"compound": "Nc1c(-c2ccc(Br)cc2)nc2sccn12 [I-118]", "test_target": "M. hapla eggs", "endpoint_value": "[3.97]"}
{"compound": "CCOc1ccc(-c2nc3sccn3c2C=O)cc1 [I-154]", "test_target": "M. hapla eggs", "endpoint_value": "[4.63]"}
{"compound": "Clc1ccccc1-c1cn2ccsc2n1 [I-27]", "test_target": "M. hapla eggs", "endpoint_value": "[3.31]"}
{"compound": "Clc1ccc(-c2cn3ccsc3n2)s1 [I-84]", "test_target": "M. hapla eggs", "endpoint_value": "[4.63]"}
